study_conditions: in cyclohexane, 299.15 K
readout_name: solubility (mole fraction)
Please give only the number in your answer, with no unit.

Name the recorded solubility (mole fraction) of the compound listed here: `COc1ccc(P(c2ccc(OC)cc2)c2ccc(OC)cc2)cc1`
0.00054

----------
study_conditions: in dichloromethane, 305.15 K
readout_name: solubility (mole fraction)

Supply solubility (mole fraction) value. Item: `O=P(O)(CO)c1ccccc1`
0.00169

----------
study_conditions: in dichloromethane, 309.15 K
readout_name: solubility (mole fraction)
Simply state the number, no unit and no words.

Return the recorded solubility (mole fraction) value; entry: O=P1(O)OCC2(CO1)COP(=O)(O)OC2 (stereo unspecified)
0.00056

----------
study_conditions: in toluene, 303.16 K
readout_name: solubility (mole fraction)
Kindly provide the number alone.

Answer with the recorded solubility (mole fraction) of O=P1(O)OCC2(CO1)COP(=O)(O)OC2 (stereo unspecified) only.
0.00071

----------
study_conditions: in ethanol, 298.16 K
readout_name: solubility (mole fraction)
The answer should be a number; do not append a unit.

Specify reported solubility (mole fraction) for the molecule shown: O=P1(Oc2ccccc2)OCC2(CO1)COP(=O)(Oc1ccccc1)OC2 (stereo unspecified)
0.00136

----------
study_conditions: in acetonitrile, 318.24 K
readout_name: solubility (mole fraction)
Write no unit; give the number alone.

Find the measured solubility (mole fraction) of O=P1(Oc2ccccc2)OCC2(CO1)COP(=O)(Oc1ccccc1)OC2 (stereo unspecified) and report it.
0.00375

----------
Parameter: solubility (mole fraction). Scope: all listed entries.
study_conditions: in chloroform, 293.16 K
In your answer, state the number alone without any accompanying words.

O=C(O)CCP(=O)(O)c1ccccc1 | 0.00026

Read the next record carefully.
Report solubility (mole fraction) for O=P1(O)OCC2(CO1)COP(=O)(O)OC2 (configuration not stated)
0.00046

----------
study_conditions: in 2-ethoxyethanol, 308.14 K
readout_name: solubility (mole fraction)
Lab note: record just the number, no unit beside it.

Solved cases (3 shown):
O=C(O)CCP(=O)(O)c1ccccc1 | 0.0638
COc1ccc(P(c2ccc(OC)cc2)c2ccc(OC)cc2)cc1 | 0.0108
COc1ccc(P(=O)(c2ccc(OC)cc2)c2ccc(OC)cc2)cc1 | 0.0114

Then this compound:
Retrieve solubility (mole fraction) measured for `O=P(O)(CO)c1ccccc1` and print it.
0.0638

----------
study_conditions: in cyclohexane, 328.45 K
readout_name: solubility (mole fraction)
The reply should be a number, written without any unit.

Give reported solubility (mole fraction) value for `COc1ccc(P(=O)(c2ccc(OC)cc2)c2ccc(OC)cc2)cc1`
0.00455

Fill in reported solubility (mole fraction) for this entry: `COc1ccc(P(c2ccc(OC)cc2)c2ccc(OC)cc2)cc1`
0.00436

----------
study_conditions: in chloroform, 308.56 K
readout_name: solubility (mole fraction)
Please give the numeric answer without any surrounding text.

Give the reported solubility (mole fraction) for this molecule. O=P1(Oc2ccccc2)OCC2(CO1)COP(=O)(Oc1ccccc1)OC2 (stereo unspecified)
0.00611

----------
study_conditions: in dichloromethane, 291.16 K
readout_name: solubility (mole fraction)
Enter a number only.

Report solubility (mole fraction) for O=P1(O)OCC2(CO1)COP(=O)(O)OC2 (stereo unspecified)
0.00027

----------
study_conditions: in chloroform, 313.16 K
readout_name: solubility (mole fraction)

O=P1(O)OCC2(CO1)COP(=O)(O)OC2 (configuration not stated) | 0.00094

From here, focus on the item given below.
Output measured solubility (mole fraction) for this item: `O=C(O)CCP(=O)(O)c1ccccc1`
0.00063

This collection of values is drawn from BigSolDB 2.1.
